Source: patent US4507320A

# target_or_test_system: presynaptic dopaminergic (DA2) receptor (Oryctolagus cuniculus, UniProt G1T1Q0)
# Sequence (G1T1Q0 1-443): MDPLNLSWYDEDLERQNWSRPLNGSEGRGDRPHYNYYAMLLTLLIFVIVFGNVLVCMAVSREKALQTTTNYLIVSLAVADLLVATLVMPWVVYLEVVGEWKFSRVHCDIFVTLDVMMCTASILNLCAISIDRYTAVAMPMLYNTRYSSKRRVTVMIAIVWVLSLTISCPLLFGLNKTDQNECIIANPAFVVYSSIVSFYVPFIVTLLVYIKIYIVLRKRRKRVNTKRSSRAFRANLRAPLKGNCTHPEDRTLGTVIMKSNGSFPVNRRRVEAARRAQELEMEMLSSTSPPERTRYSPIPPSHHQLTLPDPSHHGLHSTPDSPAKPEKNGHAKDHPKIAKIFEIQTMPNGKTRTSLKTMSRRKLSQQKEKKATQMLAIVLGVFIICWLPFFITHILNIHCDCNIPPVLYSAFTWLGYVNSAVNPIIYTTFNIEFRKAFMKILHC
# assay_text: stimulation-evoked 3H-norepinephrine release from prelabelled rabbit ear artery (DA2)
pEC50: −log10 of the molar value.
property_label: pEC50

compound="CS(=O)(=O)Nc1cc(CCN)ccc1O [Compound B]" target_or_test_system="presynaptic dopaminergic (DA2) receptor (Oryctolagus cuniculus, UniProt G1T1Q0)" property_label=pEC50 endpoint_value=5.52
compound="CNCCc1ccc(O)c(NS(C)(=O)=O)c1 [Compound C]" target_or_test_system="presynaptic dopaminergic (DA2) receptor (Oryctolagus cuniculus, UniProt G1T1Q0)" property_label=pEC50 endpoint_value=6.52
compound="CCCN(CCC)CCc1ccc(O)c(NS(C)(=O)=O)c1 [Compound A]" target_or_test_system="presynaptic dopaminergic (DA2) receptor (Oryctolagus cuniculus, UniProt G1T1Q0)" property_label=pEC50 endpoint_value=8.00

====

Read-out record for UniProt G1T1Q0: EC50
property_label: EC50

sample_smiles=CCCN(CCC)CCc1ccc(O)c(NS(=O)(=O)C(F)(F)F)c1 property_label=EC50 endpoint_value="> 1000 nM"
sample_smiles=CS(=O)(=O)Nc1cc(CCN)ccc1O property_label=EC50 endpoint_value="> 300 nM"
sample_smiles=CCCN(CCC)CCc1cccc(NS(C)(=O)=O)c1 property_label=EC50 endpoint_value="400 nM"
sample_smiles=CS(=O)(=O)Nc1cccc(CCN)c1 property_label=EC50 endpoint_value="> 1000 nM"
sample_smiles=CC(C)NCCc1ccc(O)c(NS(C)(=O)=O)c1 property_label=EC50 endpoint_value="> 1000 nM"
sample_smiles=CCCN(CCC)CCc1ccc(O)c(NS(C)(=O)=O)c1 property_label=EC50 endpoint_value="2 nM"
sample_smiles=CNCCc1ccc(O)c(NS(C)(=O)=O)c1 property_label=EC50 endpoint_value="> 30 nM"
